Tested on: MCF-7 cells
assay overview: In vitro test of cell activity (MCF-7 cells, insulin stimulation, ELISA-One fluorescence)
Type: cell-based
assay conditions: Homo sapiens, MCF7, MCF-7 cells, conc. 0.25 μM; read-out: % inhibition p70s6k
recorded metric: inhibition at 0.25 µM (%)
Write the answer as a number in %, unit excluded.

query: What measured inhibition at 0.25 µM goes with COc1ncc(-c2ccc3ncc(Cl)c(=O)n3c2)cc1NS(=O)(=O)c1c(Cl)cccc1Cl [compound 149] ?
result: 80.7

query: What measured inhibition at 0.25 µM goes with COc1ncc(-c2ccc3ncc(Cl)c(=O)n3c2)cc1NS(=O)(=O)c1cc(F)cc(F)c1 [compound 147] ?
result: 81.3

Now for another entry.
query: What measured inhibition at 0.25 µM goes with COc1ncc(-c2ccc3ncc(Cl)c(=O)n3c2)cc1NS(=O)(=O)c1sccc1Cl [compound 150] ?
result: 82.3
